# credit: patent US9302018B2

Could you please report measured Molar Extinction Coefficient (ε) for the items listed next?
# Test: Maximum absorbance wavelength and molar extinction coefficient in ethanol
# Assay type: physicochemical
# Condition Summary: in ethanol

Exam item: For the compound CCCCCCN1/C(=C/C=C/C=C/C=C/C2=[N+](CCCCS(=O)(=O)[O-])c3ccc4ccccc4c3C2(C)C)C(C)(C)c2c1ccc1ccccc21 , report Molar Extinction Coefficient (ε).
Marked response: 2.34×10^5

Exam item: For the compound CCCCCCN(CCCCCC)c1ccc(OC2=C(/C=C/C3=[N+](CCCCS(=O)(=O)[O-])c4ccc5ccccc5c4C3(C)C)CCC/C2=C\C=C2\N(CCCCS(=O)(=O)[O-])c3ccc4ccccc4c3C2(C)C)cc1.[Na+] , report Molar Extinction Coefficient (ε).
Marked response: 1.24×10^5

Exam item: For the compound CCCCCCCCN1/C(=C/C=C/C=C/C=C/C2=[N+](CCCCS(=O)(=O)[O-])c3ccc4ccccc4c3C2(C)C)C(C)(C)c2c1ccc1ccccc21 , report Molar Extinction Coefficient (ε).
Marked response: 2.63×10^5

Exam item: For the compound CC1(C)C(/C=C/C=C/C=C/C=C2/N(CCC(=O)O)c3ccc4ccccc4c3C2(C)C)=[N+](CCCCS(=O)(=O)[O-])c2ccc3ccccc3c21 , report Molar Extinction Coefficient (ε).
Marked response: 1.86×10^5

Exam item: For the compound CCCCN1/C(=C/C=C/C=C/C=C/C2=[N+](CCCCS(=O)(=O)[O-])c3ccc4ccccc4c3C2(C)C)C(C)(C)c2c1ccc1ccccc21 , report Molar Extinction Coefficient (ε).
Marked response: 2.52×10^5

Exam item: For the compound CC1(C)C(/C=C/C=C/C=C/C=C2\N(CCCCS(=O)(=O)[O-])c3ccc4ccccc4c3C2(C)C)=[N+](CCCCS(=O)(=O)[O-])c2ccc3ccccc3c21.[Na+] , report Molar Extinction Coefficient (ε).
Marked response: 1.47 × 10^5

Exam item: For the compound CCCCCCCCCCN1/C(=C/C=C/C=C/C=C/C2=[N+](CCCCS(=O)(=O)[O-])c3ccc4ccccc4c3C2(C)C)C(C)(C)c2c1ccc1ccccc21 , report Molar Extinction Coefficient (ε).
Marked response: 2.50 × 10^5
